Where do these numbers come from? They come from patent US20240254119A1.

- System Tested: wtKIT (Homo sapiens)
- Construct: 1888289AM in the reaction mixtures
- Sequence (P10721 26-976): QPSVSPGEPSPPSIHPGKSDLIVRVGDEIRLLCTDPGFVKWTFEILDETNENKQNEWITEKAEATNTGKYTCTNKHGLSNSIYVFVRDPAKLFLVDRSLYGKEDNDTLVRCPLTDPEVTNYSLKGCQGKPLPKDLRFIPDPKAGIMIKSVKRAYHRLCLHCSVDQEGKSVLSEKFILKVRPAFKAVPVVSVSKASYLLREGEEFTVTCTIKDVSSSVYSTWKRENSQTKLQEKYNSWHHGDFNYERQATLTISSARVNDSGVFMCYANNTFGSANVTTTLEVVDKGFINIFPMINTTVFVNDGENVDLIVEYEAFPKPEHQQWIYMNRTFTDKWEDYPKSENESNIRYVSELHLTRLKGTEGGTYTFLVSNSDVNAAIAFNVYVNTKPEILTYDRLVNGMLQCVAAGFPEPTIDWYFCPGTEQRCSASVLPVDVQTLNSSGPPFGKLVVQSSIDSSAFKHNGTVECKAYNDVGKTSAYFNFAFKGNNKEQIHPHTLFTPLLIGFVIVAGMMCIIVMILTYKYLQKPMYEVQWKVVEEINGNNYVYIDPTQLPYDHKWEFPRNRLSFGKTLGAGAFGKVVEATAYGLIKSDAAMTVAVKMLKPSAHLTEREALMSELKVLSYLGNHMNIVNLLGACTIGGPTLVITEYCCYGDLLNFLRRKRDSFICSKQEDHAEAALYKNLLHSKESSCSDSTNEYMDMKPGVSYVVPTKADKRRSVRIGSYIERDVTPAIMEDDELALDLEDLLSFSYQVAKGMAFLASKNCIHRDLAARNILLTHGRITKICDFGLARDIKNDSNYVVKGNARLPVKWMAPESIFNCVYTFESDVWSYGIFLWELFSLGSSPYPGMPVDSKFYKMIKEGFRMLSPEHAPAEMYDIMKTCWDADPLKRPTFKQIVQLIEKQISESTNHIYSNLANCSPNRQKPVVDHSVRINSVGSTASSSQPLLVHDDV
- Test Summary: Caliper biochemical assay, wtKIT
- Conditions: Table 6, read-out: KIT Biochemical IC50 avg
pIC50: −log10 of the molar value.
pIC50 listing for selected compounds.
Property Measured: pIC50

COCC1(c2nc(-c3ccc(C)c(NC(=O)c4cnc5ccccn45)c3)no2)CC(F)(F)C1 :: ≥ 7.30
Cc1nc(-c2ccc(C)c(NC(=O)c3cnc4ccc(N)cn34)c2)no1 :: ≥ 7.30
Cc1ccc(-c2noc(C3CC(S(=O)(=O)N(C)C)C3)n2)cc1NC(=O)c1cnc2ccccn12 (centres unmarked) :: ≥ 7.30
CC(C)(C)OC(=O)N1CC(c2nc(-c3ccc(Br)c(NC(=O)c4cnc5ccccn45)c3)no2)C1 :: 6.30 to 7.30
Cc1ccc(-c2noc(CC(=O)OCc3ccccc3)n2)cc1NC(=O)c1cnc2ccccn12 :: ≥ 7.30
Cc1ccc(-c2noc(C34CCC(CC3)CC4)n2)cc1NC(=O)c1cnc2ccccn12 :: 6.30 to 7.30
Cc1ccc(-c2noc([C@@H]3CC4(CC4)CN3)n2)cc1NC(=O)c1cnc2ccccn12 :: ≥ 7.30
Cc1ccc(-c2noc(C3CC(O)(C4(O)CCC4)C3)n2)cc1NC(=O)c1cnc2ccccn12 (centres unmarked) :: 6.30 to 7.30
COC(=O)Cc1nc(-c2ccc(C)c(NC(=O)c3cnc4ccccn34)c2)no1 :: ≥ 7.30
COC1CC(c2nc(-c3ccc(C)c(NC(=O)c4cnc5ccccn45)c3)no2)C1 (centres unmarked) :: ≥ 7.30
COC(=O)N1CC(c2nc(-c3ccc(Cl)c(NC(=O)c4cnc5ccccn45)c3)no2)C1 :: ≥ 7.30
